- TEST_TARGET: HLA-A*02:16
- TEST_PROTOCOL: IEDB peptide-MHC binding, purified MHC/direct/fluorescence; filed as Kd, often an IC50 or EC50 that approximates it; bounds were set here for any values at or beyond the usual limits of such assays
- TEST_CONTEXT: source organism: Zaire ebolavirus
VALUE_TYPE: Kd

[Q] Quick one: give measured Kd for APFARLLNL
[A] ≥ 20 µM

---

- TEST_TARGET: HLA-B*40:01
- TEST_PROTOCOL: IEDB peptide-MHC binding, purified MHC/direct/fluorescence; filed as Kd, often an IC50 or EC50 that approximates it; bounds were set here for any values at or beyond the usual limits of such assays
- TEST_CONTEXT: source organism: West Nile virus
pKd: −log10 of the molar value.
VALUE_TYPE: pKd

[Q] Quick one: give measured pKd for TRAVGKPLL
[A] ≤ 4.70
